B1: library; numbered along this chain (parent)
chain: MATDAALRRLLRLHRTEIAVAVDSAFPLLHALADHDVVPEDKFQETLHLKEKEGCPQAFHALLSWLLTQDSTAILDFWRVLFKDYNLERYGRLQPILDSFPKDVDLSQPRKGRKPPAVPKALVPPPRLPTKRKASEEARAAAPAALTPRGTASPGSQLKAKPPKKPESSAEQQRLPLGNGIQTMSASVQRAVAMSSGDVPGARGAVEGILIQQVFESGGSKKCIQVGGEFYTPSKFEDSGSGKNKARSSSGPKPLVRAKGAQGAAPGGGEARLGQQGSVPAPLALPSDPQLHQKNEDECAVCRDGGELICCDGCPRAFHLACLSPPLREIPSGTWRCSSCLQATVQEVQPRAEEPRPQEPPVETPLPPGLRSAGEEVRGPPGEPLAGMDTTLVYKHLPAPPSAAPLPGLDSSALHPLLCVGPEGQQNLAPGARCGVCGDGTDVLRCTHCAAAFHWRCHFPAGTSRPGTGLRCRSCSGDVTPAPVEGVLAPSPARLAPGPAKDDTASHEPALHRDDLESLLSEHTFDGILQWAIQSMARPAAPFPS

Variants of: B1
test method notes: AIRE transcriptional activation functional score (insulin promoter-GFP; nonsense median 0, synonymous median 1) (normalised score); higher = higher AIRE activity (more reporter activation)
run conditions: with insulin promoter-GFP reporter in HEK293
Outcome: 1 for AIRE transcriptional activation functional score of at least 0.7; -1 for anything lower.

R247H; -1
I18N; -1
Y231L; 1
Y394H; -1
H507S; 1
E359N; 1
F82I; -1
P116V; 1
S278D; 1
A258W; 1
D288F; 1
P400T; 1
A5I; 1
G201E; 1
P360T; 1
L10N; -1
P499K; 1
V123K; 1
L67F; -1
P542N; -1
